- Test system: Caki-1
- protocol.summary: Free drug in vitro cytotoxicity (resazurin)
- Type: cell-based
- test.settings: Homo sapiens, Caki-1 cells, 96 hours
Provide the recorded pIC50 for the entries that follow.
One number for each entry, as −log10 of the molar value.

{"columns": ["smiles.str", "measurement"],
 "data": [
  ["COc1cc2c(cc1OCCCOc1cc3c(cc1OC)C(=O)N1C=C(c4cccc(N)c4)C[C@H]1C=N3)N=C[C@@H]1CC(C)=CN1C2=O", 9.22]
]}

Next item in the queue.
// COc1cc2c(cc1OCCCOc1cc3c(cc1OC)C(=O)N1C=C(c4ccc(N)cc4)C[C@H]1C=N3)N=C[C@@H]1CC(C)=CN1C2=O : pIC50 value = 10.22

---

- Tested on: HL-60
- protocol.summary: Alternative cell assay (Cell Titer Glo cytotoxicity)
- Format: cell-based
- test.settings: Homo sapiens, HL-60 cells, 48 hours
- Description: Cells were plated in 150 μL growth media per well into black-sided clear-bottom 96-well plates (Costar, Corning) and allowed to settle for 1 hour in the biological cabinet before placing in the incubator at 37° C., 5% CO2. […] Cytotoxicity was measure by incubating with 100 μL Cell Titer Glo (Promega) solution for 1 hour, and then luminescence was measured on a Fusion HT plate reader (Perkin Elmer). […]
measured.parameter: IC50
Record the result as a number with its unit.

// COc1cc2c(cc1OCCCOc1cc3c(cc1OC)C(=O)N1C=C(c4ccc(N)cc4)C[C@H]1C=N3)N=C[C@@H]1CC(C)=CN1C2=O [Compound 11] : IC50 value = 0.1 nM

---

- Test system: HEL
- protocol.summary: Alternative cell assay (Cell Titer Glo cytotoxicity)
- Assay type: cell-based
- test.settings: Homo sapiens, HEL cells, 48 hours
measured.parameter: pIC50
Give bare numbers, as −log10 of the molar value.

// COc1cc2c(cc1OCCCOc1cc3c(cc1OC)C(=O)N1C=C(c4ccc(N)cc4)C[C@H]1C=N3)N=C[C@@H]1CC(C)=CN1C2=O : pIC50 value = 10.22

---

- Tested on: MCF-7
- protocol.summary: Free drug in vitro cytotoxicity (resazurin)
- Format: cell-based
- test.settings: Homo sapiens, MCF7, MCF-7 cells, 96 hours
measured.parameter: pIC50
Answers are plain numbers, as −log10 of the molar value.

Solved entries:
{"columns": ["smiles.str", "pIC50"],
 "data": [
  ["CC=CC1=CN2C(=O)c3cc(OC)c(OCCCCCOc4cc5c(cc4OC)C(=O)N4C=C(c6cccc(N)c6)C[C@H]4C=N5)cc3N=C[C@@H]2C1", 10.52],
  ["COc1cc2c(cc1OCCCOc1cc3c(cc1OC)C(=O)N1C=C(c4cccc(N)c4)C[C@H]1C=N3)N=C[C@@H]1CC(C)=CN1C2=O", 8.70]
]}

Next item in the queue.
// COc1cc2c(cc1OCCCOc1cc3c(cc1OC)C(=O)N1C=C(c4ccc(N)cc4)C[C@H]1C=N3)N=C[C@@H]1CC(C)=CN1C2=O : pIC50 value = 9.70
